target.desc: Glutathione S-transferase P (Homo sapiens)
Sequence (P09211 whole entry): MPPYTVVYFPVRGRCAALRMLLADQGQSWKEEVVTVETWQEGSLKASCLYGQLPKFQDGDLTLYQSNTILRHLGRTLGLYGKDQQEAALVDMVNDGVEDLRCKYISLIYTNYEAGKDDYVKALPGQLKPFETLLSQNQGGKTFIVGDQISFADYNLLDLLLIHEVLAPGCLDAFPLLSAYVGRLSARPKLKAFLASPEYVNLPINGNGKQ
protocol: Prodrug activation in human HCT116 cells assessed as GST-Pi-mediated NO release at 5 uM by nitrate reductase assay
Format: cell-based

compound | target.desc | Drug metabolism
COc1ccc(C2CC(c3cccc(Oc4cc(O/N=[N+](\[O-])N5CCOCC5)c([N+](=O)[O-])cc4[N+](=O)[O-])c3)=NN2C(C)=O)cc1OC (stereo unspecified) | Glutathione S-transferase P (Homo sapiens) | Dose-dependent effect
COc1cc(C2CC(c3cccc(Oc4cc(O/N=[N+](\[O-])N5CCOCC5)c([N+](=O)[O-])cc4[N+](=O)[O-])c3)=NN2C(C)=O)cc(OC)c1OC (stereo unspecified) | Glutathione S-transferase P (Homo sapiens) | Dose-dependent effect
CCCCOc1ccc(C2CC(c3cccc(Oc4cc(O/N=[N+](\[O-])N5CCOCC5)c([N+](=O)[O-])cc4[N+](=O)[O-])c3)=NN2C(C)=O)cc1OC (stereo unspecified) | Glutathione S-transferase P (Homo sapiens) | Dose-dependent effect
CC(=O)N1N=C(c2cccc(Oc3cc(O/N=[N+](\[O-])N4CCOCC4)c([N+](=O)[O-])cc3[N+](=O)[O-])c2)CC1c1ccc(C)cc1 (stereo unspecified) | Glutathione S-transferase P (Homo sapiens) | Dose-dependent effect
CC(=O)N1N=C(c2cccc(Oc3cc(O/N=[N+](\[O-])N4CCOCC4)c([N+](=O)[O-])cc3[N+](=O)[O-])c2)CC1c1ccc(N(C)C)cc1 (stereo unspecified) | Glutathione S-transferase P (Homo sapiens) | Dose-dependent effect
COc1ccc(C2CC(c3cccc(Oc4cc(O/N=[N+](\[O-])N5CCOCC5)c([N+](=O)[O-])cc4[N+](=O)[O-])c3)=NN2C(C)=O)cc1 (stereo unspecified) | Glutathione S-transferase P (Homo sapiens) | Dose-dependent effect

---

protocol: Glutathione reactivity in pH 7.4 PBS buffer assessed as parent compound remaining at 0.1 mM after 1 hr in presence of 2 mM GSH by HPLC analysis
Assay type: physicochemical
assay.conditions: PBS buffer with 2 mM glutathione (GSH), read-out: Stability

compound | remaining at 1 h, 100 µM [%]
COc1cc(C2CC(c3cccc(Oc4cc(O/N=[N+](\[O-])N5CCCCC5)c([N+](=O)[O-])cc4[N+](=O)[O-])c3)=NN2C(C)=O)cc(OC)c1OC (stereo unspecified) | 80

---

protocol: Selectivity ratio of IC50 for human MCF10A cells to IC50 for human MDA-MB-231 cells
Assay type: toxicity
assay.conditions: MCF10A cells versus MDA-MB-231 cells, read-out: Ratio IC50

compound | selectivity ratio
CCCCOc1ccc(C2CC(c3cccc(Oc4cc(O/N=[N+](\[O-])N5CCOCC5)c([N+](=O)[O-])cc4[N+](=O)[O-])c3)=NN2C(C)=O)cc1OC (centres undefined) | 3.4
COc1ccc(/C=C/C(=O)c2cccc(Oc3cc(O/N=[N+](\[O-])N4CCCCC4)c([N+](=O)[O-])cc3[N+](=O)[O-])c2)cc1OC | 8.6
COc1cc(/C=C/C(=O)c2cccc(Oc3cc(O/N=[N+](\[O-])N4CCOCC4)c([N+](=O)[O-])cc3[N+](=O)[O-])c2)cc(OC)c1OC | 11.7
COc1ccc(C2CC(c3cccc(Oc4cc(O/N=[N+](\[O-])N5CCOCC5)c([N+](=O)[O-])cc4[N+](=O)[O-])c3)=NN2C(C)=O)cc1OC (centres undefined) | 15.3
CCCCOc1ccc(C2CC(c3cccc(Oc4cc(O/N=[N+](\[O-])N5CCCCC5)c([N+](=O)[O-])cc4[N+](=O)[O-])c3)=NN2C(C)=O)cc1OC (centres undefined) | 24.4
CC(=O)N1N=C(c2cccc(Oc3cc(O/N=[N+](\[O-])N4CCCCC4)c([N+](=O)[O-])cc3[N+](=O)[O-])c2)CC1c1ccc(N(C)C)cc1 (centres undefined) | 18
COc1cc(C2CC(c3cccc(Oc4cc(O/N=[N+](\[O-])N5CCOCC5)c([N+](=O)[O-])cc4[N+](=O)[O-])c3)=NN2C(C)=O)cc(OC)c1OC (centres undefined) | 41.2
Cc1ccc(/C=C/C(=O)c2cccc(Oc3cc(O/N=[N+](\[O-])N4CCCCC4)c([N+](=O)[O-])cc3[N+](=O)[O-])c2)cc1 | 34.2
CC(=O)N1N=C(c2cccc(Oc3cc(O/N=[N+](\[O-])N4CCOCC4)c([N+](=O)[O-])cc3[N+](=O)[O-])c2)CC1c1ccc(C)cc1 (centres undefined) | 3.1
